The origin of these recorded values is paper PMC9331314.

System: Marburg pseudovirus (GP MARV) | Read-out: SI (CC50/IC50)

compound	SI (CC50/IC50)
Cc1ccc(-c2cs/c(=N/N=C3\C[C@H]4CC[C@]3(C)C4(C)C)n2C)cc1	3
C=CCN1C(=O)CS/C1=N/N=C1/C[C@@H]2CC[C@@]1(C)C2(C)C	3
CC1(C)[C@@H]2CC[C@@]1(C)/C(=N/N=c1/scc(-c3ccc(Cl)cc3)n1-c1ccccc1)C2	8
CC12CCC(CC1=NN=C1SCC(=O)N1c1ccccc1)C2(C)C (centres unmarked)	5
COc1ccc(-c2cs/c(=N/N=C3\C[C@H]4CC[C@]3(C)C4(C)C)n2C)cc1	4
CNC(=S)N/N=C1\C[C@@H]2CC[C@@]1(C)C2(C)C	2
C=CCn1c(-c2ccc(Cl)cc2)cs/c1=N/N=C1\C[C@H]2CC[C@]1(C)C2(C)C	3
Cc1ccc(-c2cs/c(=N/N=C3\C[C@H]4CC[C@]3(C)C4(C)C)n2-c2ccccc2)cc1	2
CCn1c(-c2ccc(OC)cc2)cs/c1=N/N=C1\C[C@H]2CC[C@]1(C)C2(C)C	9
CCN1C(=O)CS/C1=N/N=C1/C[C@@H]2CC[C@@]1(C)C2(C)C	3
C=CCn1c(-c2ccc(OC)cc2)cs/c1=N/N=C1\C[C@H]2CC[C@]1(C)C2(C)C	3

###

We begin with a simple list: items and their reported CC50.
- test: in vitro
- experimental.context: human

compound	CC50 [µM]
C=CCN1C(=O)CS/C1=N/N=C1/C[C@H]2CC[C@]1(C)C2(C)C	108
CN1C(=O)CS/C1=N/N=C1/C[C@@H]2CC[C@@]1(C)C2(C)C	182
CC1(C)S/C(=N/N=C2/C[C@H]3CC[C@]2(C)C3(C)C)N(c2ccccc2)C1=O	325
CCn1c(-c2ccc(Cl)cc2)cs/c1=N/N=C1\C[C@H]2CC[C@]1(C)C2(C)C	51.6
C=CCn1c(-c2ccc(OC)cc2)cs/c1=N/N=C1\C[C@H]2CC[C@]1(C)C2(C)C	37.9
CC1(C)[C@@H]2CC[C@@]1(C)/C(=N/NC(=S)Nc1ccccc1)C2	700
CCN1C(=O)C(C)(C)SC1=NN=C1CC2CCC1(C)C2(C)C (stereo not drawn)	778
C=CCN1C(=O)CS/C1=N/N=C1/C[C@@H]2CC[C@@]1(C)C2(C)C	121
Cc1ccc(-c2cs/c(=N/N=C3\C[C@H]4CC[C@]3(C)C4(C)C)n2C)cc1	79.2
C=CCNC(=S)N/N=C1\C[C@@H]2CC[C@@]1(C)C2(C)C	56.5
CC1(C)[C@H]2CC[C@]1(C)/C(=N/NC(=S)Nc1ccccc1)C2	280
C=CCn1c(-c2ccc(Cl)cc2)cs/c1=N/N=C1\C[C@H]2CC[C@]1(C)C2(C)C	80

###

- test: in vitro
- experimental.context: African green monkey
recorded.endpoint: log10 of CC50 (log10 of the value in µM)

molecule.smiles	log10 of CC50
C=CCN1C(=O)CS/C1=N/N=C1/C[C@@H]2CC[C@@]1(C)C2(C)C	2.20
CC1(C)[C@@H]2CC[C@@]1(C)/C(=N/NC(=S)Nc1ccccc1)C2	1.38
C=CCn1c(-c2ccc(Cl)cc2)cs/c1=N/N=C1\C[C@H]2CC[C@]1(C)C2(C)C	1.28
CC1(C)[C@H]2CC[C@]1(C)/C(=N\N=C1\SCC(=O)N1c1ccccc1)C2	2.46
CCn1c(-c2ccccc2)cs/c1=N/N=C1\C[C@H]2CC[C@]1(C)C2(C)C	1.23

###

System: vaccinia virus (strain Copenhagen) | Read-out: SI (CC50/IC50)

molecule	SI (CC50/IC50)
CN1C(=O)CS/C1=N/N=C1/C[C@H]2CC[C@]1(C)C2(C)C [Compound 3d]	3
CCNC(=S)N/N=C1\C[C@@H]2CC[C@@]1(C)C2(C)C [2′c]	3
CN1C(=O)C(C)(C)S/C1=N/N=C1/C[C@H]2CC[C@]1(C)C2(C)C [Compound 4d]	24
CCn1c(-c2ccccc2)cs/c1=N/N=C1\C[C@H]2CC[C@]1(C)C2(C)C [Compound 8c]	6
CC1(C)[C@@H]2CC[C@@]1(C)/C(=N/NC(=S)Nc1ccccc1)C2 [Compound 2a]	4
C=CCn1c(-c2ccccc2)cs/c1=N/N=C1\C[C@H]2CC[C@]1(C)C2(C)C [Compound 8b]	6
C=CCNC(=S)N/N=C1\C[C@@H]2CC[C@@]1(C)C2(C)C [2′b]	3
C=CCn1c(-c2ccc(C)cc2)cs/c1=N/N=C1\C[C@H]2CC[C@]1(C)C2(C)C [Compound 6b]	3
Cc1ccc(-c2cs/c(=N/N=C3\C[C@H]4CC[C@]3(C)C4(C)C)n2C)cc1 [Compound 6d]	3
CC1(C)[C@H]2CC[C@]1(C)/C(=N/NC(=S)Nc1ccccc1)C2 [2′a]	4
CCN1C(=O)CS/C1=N/N=C1/C[C@H]2CC[C@]1(C)C2(C)C [Compound 3c]	4

###

- test: in vitro
- experimental.context: African green monkey

compound	CC50 / µM
CCN1C(=O)C(C)(C)SC1=NN=C1CC2CCC1(C)C2(C)C (stereo not shown)	290
CC12CCC(CC1=NN=C1SCC(=O)N1c1ccccc1)C2(C)C (stereo not shown)	290
CN1C(=O)CS/C1=N/N=C1/C[C@H]2CC[C@]1(C)C2(C)C	310
CCNC(=S)N/N=C1\C[C@@H]2CC[C@@]1(C)C2(C)C	45
C=CCN1C(=O)CS/C1=N/N=C1/C[C@H]2CC[C@]1(C)C2(C)C	99
CC1(C)[C@H]2CC[C@]1(C)/C(=N/NC(=S)Nc1ccccc1)C2	16
CCN1C(=O)CS/C1=N/N=C1/C[C@H]2CC[C@]1(C)C2(C)C	87
COc1ccc(-c2cs/c(=N/N=C3\C[C@H]4CC[C@]3(C)C4(C)C)n2-c2ccccc2)cc1	232
Cn1c(-c2ccccc2)cs/c1=N/N=C1\C[C@H]2CC[C@]1(C)C2(C)C	14
CC1(C)[C@@H]2CC[C@@]1(C)/C(=N/N=c1/scc(-c3ccc(Cl)cc3)n1-c1ccccc1)C2	229
C=CCn1c(-c2ccccc2)cs/c1=N/N=C1\C[C@H]2CC[C@]1(C)C2(C)C	17
Cn1c(-c2ccc(Cl)cc2)cs/c1=N/N=C1\C[C@H]2CC[C@]1(C)C2(C)C	144
C=CCn1c(-c2ccc(OC)cc2)cs/c1=N/N=C1\C[C@H]2CC[C@]1(C)C2(C)C	200
